The measured values listed here are drawn from PubChem BioAssay (Tox21).

Run description: qHTS assay to identify small molecule agonists of the constitutive androstane receptor (CAR) signaling pathway - cell viability counter screen (AID 1224836); also: nearly all actives have a fitted effect of over 45% in size
Test parameters: HepG2-CYP2B6-hCAR viability, CellTiter-Fluor, 23 h, PK11195 added to every well; series mostly up to 92.4 µM
Inconclusive results are not listed. Activity calls are given as the source filed them. Calls follow the shape of the dose curve; as a rule, active = well fitted cell-killing curve with a large enough effect in the repeat runs; inconclusive = weak or mixed curves, or effect the other way; inactive = flat fitted curve, though single readings scatter.
Please state which outcome applies, choosing from 1.0 = active, 0.0 = inactive

Lab log entry: CCOc1cc(N)c(Cl)cc1C(=O)NCC1CN(Cc2ccc(F)cc2)CCO1 (centres undefined) — outcome as called in the assay?
0.0

Lab log entry: O=C(O)c1ccc(CO)o1 — outcome as called in the assay?
0.0

Lab log entry: CCCCOC(=O)CCS — outcome as called in the assay?
0.0

Lab log entry: COc1cc2c(cc1OC)-c1cc(=Nc3c(C)cc(C)cc3C)n(C)c(=O)n1CC2 — outcome as called in the assay?
0.0

Lab log entry: Cc1cc(C(=C2C=CC(=Nc3ccc(S(=O)(=O)O)cc3S(=O)(=O)O)C=C2)c2ccc(Nc3ccc(S(=O)(=O)O)cc3)cc2)ccc1N — outcome as called in the assay?
0.0

Lab log entry: CC(=O)[C@H]1CC[C@H]2[C@@H]3C=CC4=CC(=O)CC[C@@]4(C)[C@@H]3CC[C@]12C — outcome as called in the assay?
0.0

Lab log entry: COc1ccc(C(=O)c2cccc(O)c2)c(OC)c1 — outcome as called in the assay?
0.0

Lab log entry: CCn1nc(C)c2c1C(=O)NCC(c1ccc(O)cc1)=N2 — outcome as called in the assay?
0.0

Lab log entry: CC#N — outcome as called in the assay?
0.0

Lab log entry: CC(=O)CC(c1ccc([N+](=O)[O-])cc1)c1c(O)c2ccccc2oc1=O (centres undefined) — outcome as called in the assay?
0.0

Lab log entry: CCC(C(=O)OCCN(CC)CC)c1ccccc1 (centres undefined) — outcome as called in the assay?
0.0

Lab log entry: Cc1c(C(=O)NN2CCCCC2)nn(-c2ccc(Cl)cc2Cl)c1-c1ccc(Cl)cc1 — outcome as called in the assay?
0.0

Lab log entry: Nc1nc(Cl)nc2c1ncn2[C@@H]1O[C@H](CO)[C@@H](O)[C@@H]1F — outcome as called in the assay?
0.0

Lab log entry: COC(=O)Nc1nc2ccc(C(=O)c3cccs3)cc2[nH]1 — outcome as called in the assay?
1.0

Lab log entry: CCC(C)(O)CCC=C(C)C (centres undefined) — outcome as called in the assay?
0.0

Lab log entry: C1COCO1 — outcome as called in the assay?
0.0

Lab log entry: Cc1occc1C(=O)Nc1ccc(C(=O)N2CCC(F)(F)/C(=C\C(=O)N3CCC(N4CCCCC4)CC3)c3ccccc32)cc1 — outcome as called in the assay?
0.0

Lab log entry: CC(C)C(=O)O — outcome as called in the assay?
0.0

Lab log entry: CC(Cl)C(Cl)Cl (centres undefined) — outcome as called in the assay?
0.0

Lab log entry: CN(C)CCOC1=Cc2ccccc2Sc2ccc(Cl)cc21 — outcome as called in the assay?
0.0

Lab log entry: CO/N=C1\CN(c2nc3c(cc2F)c(=O)c(C(=O)O)cn3C2CC2)CC1CN (centres undefined) — outcome as called in the assay?
0.0

Lab log entry: CCc1cccc(N(C)C(N)=Nc2cccc3ccccc23)c1 — outcome as called in the assay?
0.0

Lab log entry: CSc1ccc(Oc2ccc(S(N)(=O)=O)cc2CN(C)C)cc1C — outcome as called in the assay?
0.0

Lab log entry: CCC(=O)OC/C=C/c1ccccc1 — outcome as called in the assay?
0.0

Lab log entry: CC(C)CCCCCOC(=O)CCCCC(=O)OCCCCCC(C)C — outcome as called in the assay?
0.0

Lab log entry: CCCOc1ccc(S(=O)(=O)N2CCN(CC)CC2)cc1-c1nc2c(CC)n(Cc3ccccn3)nc2c(=O)[nH]1 — outcome as called in the assay?
0.0

Lab log entry: O=C(Nc1ccc([N+](=O)[O-])cc1)Nc1ccc([N+](=O)[O-])cc1 — outcome as called in the assay?
0.0

Lab log entry: CCCCCCCCSCCO — outcome as called in the assay?
0.0

Lab log entry: C=CC(C)(O)CCCC(C)CCCC(C)CCCC(C)C (centres undefined) — outcome as called in the assay?
0.0

Lab log entry: Nc1ccc(S(=O)(=O)O)cc1 — outcome as called in the assay?
0.0

Lab log entry: C(=C\c1ccccc1)/CN1CCN(C(c2ccccc2)c2ccccc2)CC1 — outcome as called in the assay?
0.0

Lab log entry: CCCCCCOC(=O)C(C)C — outcome as called in the assay?
0.0

Lab log entry: CC1C2CC(CC2C2CCCC(O)C2)C1(C)C (centres undefined) — outcome as called in the assay?
0.0

Lab log entry: CCCCC(CC)COC(=O)COc1ccc(Cl)cc1C (centres undefined) — outcome as called in the assay?
0.0

Lab log entry: CN(C(=O)C(Cl)Cl)c1ccc(OC(=O)c2ccco2)cc1 — outcome as called in the assay?
0.0

Lab log entry: O=S(=O)(c1ccccc1)c1ccc(Cl)cc1 — outcome as called in the assay?
0.0

Lab log entry: CCCCC(CC)CNCC(CC)CCCC (centres undefined) — outcome as called in the assay?
0.0

Lab log entry: CC(=O)Oc1ccc2c(c1)CC[C@@H]1[C@@H]2CC[C@]2(C)[C@@H](O)CC[C@@H]12 — outcome as called in the assay?
0.0

Lab log entry: Cc1nc2ccccn2c(=O)c1CCN1CCC(C(=O)c2ccc(F)cc2)CC1 — outcome as called in the assay?
0.0

Lab log entry: CCc1c2c(nc3ccc(OC(=O)N4CCC(N5CCCCC5)CC4)cc13)-c1cc3c(c(=O)n1C2)COC(=O)[C@]3(O)CC — outcome as called in the assay?
0.0

Lab log entry: CCCCC(=O)O[C@]1(C(=O)CO)CC[C@H]2[C@@H]3CCC4=CC(=O)CC[C@]4(C)[C@H]3[C@@H](O)C[C@@]21C — outcome as called in the assay?
0.0

Lab log entry: CCOC(=O)OCC — outcome as called in the assay?
0.0

Lab log entry: c1cnc2c(n1)CCCC2 — outcome as called in the assay?
0.0

Lab log entry: Nc1nccs1 — outcome as called in the assay?
0.0

====

Run description: qHTS assay to identify small molecule antagonists of the estrogen receptor alpha (ER-alpha) signaling pathway using the BG1 cell line - cell viability counter screen (AID 743081);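 also: compound given together with 17beta-estradiol as the ER stimulus; nearly all actives have a fitted effect of over 45% in size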
Test parameters: BG1Luc4E2 viability, CellTiter-Fluor, 22 h; series mostly up to 70.3 µM
Results filed as inconclusive are left out. Calls of active or inactive are those of the source. The call rests on the fitted dose curve; in most records, active means well fitted cell-killing curve with a large enough effect in the repeat runs; inconclusive means weak or mixed curves, or effect the other way; inactive means flat fitted curve, though single readings scatter.
Please state which outcome applies, choosing from active, inactive

Lab log entry: CCCCCCCCCCCC[N+](C)(C)CC(=O)[O-] — outcome as called in the assay?
inactive

Lab log entry: CN(C(=O)C(Cl)Cl)c1ccc(OC(=O)c2ccco2)cc1 — outcome as called in the assay?
inactive

Lab log entry: CN1CCN(c2c(F)cc3c(=O)c(C(=O)O)cn4c3c2OCN4C)CC1 — outcome as called in the assay?
inactive

Lab log entry: CC(=O)OCC(=O)[C@@]12OC(C)(C)O[C@@H]1C[C@H]1[C@@H]3C[C@H](F)C4=CC(=O)C=C[C@]4(C)[C@@]3(F)[C@@H](O)C[C@@]12C — outcome as called in the assay?
inactive

Lab log entry: CC(=O)Nc1ccc(N)cc1 — outcome as called in the assay?
inactive

Lab log entry: Cc1cc(O)c(C(C)C)cc1Cl — outcome as called in the assay?
inactive

Lab log entry: COc1ccc(CCC(=O)c2c(O)cc(O[C@@H]3O[C@H](CO)[C@@H](O)[C@H](O)[C@H]3O[C@@H]3O[C@@H](C)[C@H](O)[C@@H](O)[C@H]3O)cc2O)cc1O — outcome as called in the assay?
inactive

Lab log entry: CC(C)(C)CC(C)(C)c1ccc(OCCO)cc1 — outcome as called in the assay?
active

Lab log entry: CCOC(=N)CC(=O)OCC — outcome as called in the assay?
inactive

Lab log entry: CC(=O)OCC(=O)[C@H]1CC[C@H]2[C@@H]3CCC4=CC(=O)CC[C@]4(C)[C@H]3CC[C@]12C — outcome as called in the assay?
inactive

====

Run description: qHTS assay for identifying genotoxic compounds that show differential cytotoxicity against isogenic chicken DT40 cell lines with known DNA damage response pathways - Rad54/Ku70 mutant cell line (AID 743015); also: nearly all actives have a fitted effect of over 60% in size; also: potency is read from the fitted curve at half-maximal effect
Test parameters: DT40 Rad54/Ku70 mutant viability, CellTiter-Glo, 40 h; series mostly up to 66.8 µM
Records with an inconclusive call do not appear. Calls of active or inactive are those of the source. Calls follow the shape of the dose curve; as a rule, active = well fitted cell-killing curve with a large enough effect in the repeat runs; inconclusive = weak or mixed curves; inactive = no such curve, though single readings can be large or run the other way.
Property label: Potency

Below, each entry is followed by its recorded Potency result.
• CCCCCCCC/C=C\CCCCCCCC(=O)OC = inactive
• CC(C)C(=O)O = inactive
• CC[C@@H]([C@H](C)O)n1ncn(-c2ccc(N3CCN(c4ccc(OC[C@@H]5CO[C@@](Cn6cncn6)(c6ccc(F)cc6F)C5)cc4)CC3)cc2)c1=O = 1.68 µM (active)
• CCCCOC(=O)CCS = inactive
• CC(=O)OCC(=O)[C@@]12OC(C)(C)O[C@@H]1C[C@H]1[C@@H]3C[C@H](F)C4=CC(=O)C=C[C@]4(C)[C@@]3(F)[C@@H](O)C[C@@]12C = inactive

I am curious: what Potency value has been reported for CCN(Cc1cccc(S(=O)(=O)O)c1)c1ccc(C(=C2C=CC(=[N+](CC)Cc3cccc(S(=O)(=O)[O-])c3)C=C2)c2ccccc2)cc1 ?
inactive

I am curious: what Potency value has been reported for c1cc[c]([Bi]([c]2ccccc2)[c]2ccccc2)cc1 ?
61.1 µM (active)

I am curious: what Potency value has been reported for CCOC(=O)c1ccccc1OC ?
inactive

I am curious: what Potency value has been reported for NCC1CCCC(CN)C1 (stereo not given) ?
inactive

I am curious: what Potency value has been reported for CC1=C(C=O)C(C)(C)CCC1 ?
inactive

I am curious: what Potency value has been reported for CC(C)(O)c1ccccc1CC[C@@H](SCC1(CC(=O)O)CC1)c1cccc(/C=C/c2ccc3ccc(Cl)cc3n2)c1 ?
inactive

I am curious: what Potency value has been reported for CCCOCCOCCO ?
inactive

I am curious: what Potency value has been reported for N#C/C(=C1\SCC(c2ccccc2Cl)S1)n1ccnc1 (stereo not given) ?
29.8 µM (active)

I am curious: what Potency value has been reported for O=Cc1c(Cl)cccc1Cl ?
inactive

I am curious: what Potency value has been reported for COc1ccc(CCC(=O)c2c(O)cc(O[C@@H]3O[C@H](CO)[C@@H](O)[C@H](O)[C@H]3O[C@@H]3O[C@@H](C)[C@H](O)[C@@H](O)[C@H]3O)cc2O)cc1O ?
inactive
